Test: Distribution of C1 in tissues
Assay type: in vivo, Wistar rats
Details: male, Wistar, rat, lung, po, 75 mg/kg, Lung, 10 min, p.o. 75 mg/kg, n = 3; read-out: Average Concentration
ENDPOINT: concentration at 10 min (ng/mL)
Respond with the bare value in ng/mL.

[in] Tell me the measured concentration at 10 min of O=C(/C=C(/Br)C(=O)O)Nc1ccc(O)c(C(=O)O)c1 [Compound C1] , please.
[out] 15700

* * *

Experiment: Distribution of C1 in tissues
Assay type: in vivo, Wistar rats
Conditions: male, Wistar, rat, heart, po, 75 mg/kg, Hearth, p.o. 75 mg/kg, individual rats; read-out: Concentration (µg/mL) at 3 h, Rat 1-3
Method: Fifteen male Wistar rats were distributed in five groups (n = 3) and rats were orally administered C1 at a single dose of 75 mg/kg. Subsequently, a group of animals was sacrificed (n = 3) at 10, 30, 90, 180, and 360 min. […] All tissues and organs were weighed on an analytical balance and immediately processed. Each tissue sample was homogenized with saline solution in a 1:3 (wt/v) ratio. The preparation process for analysis was the same as described above for plasma samples [57] (File S8).
ENDPOINT: concentration at 3 h (µg/mL)
Report as a plain number; the unit µg/mL is understood.

[in] Which value of concentration at 3 h has been reported for O=C(/C=C(/Br)C(=O)O)Nc1ccc(O)c(C(=O)O)c1 [Compound C1] in the records?
[out] 2.5
